- SYSTEM_NAME: Kras and SOS1 (biotin-tagged human Kras loaded with GDP, His-tagged human SOS1) (Homo sapiens, UniProt P01116, G12D)
- Construct: made in house; host or cells: E. coli (stated for Kras only)
- Sequence (P01116 1-188 isoform P01116-2 G12D): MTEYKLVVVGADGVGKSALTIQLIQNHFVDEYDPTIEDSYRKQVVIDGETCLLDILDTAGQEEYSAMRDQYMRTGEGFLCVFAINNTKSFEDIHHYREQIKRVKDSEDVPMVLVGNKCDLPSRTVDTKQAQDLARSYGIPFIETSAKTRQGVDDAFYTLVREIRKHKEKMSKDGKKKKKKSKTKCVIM
- METHOD_DESCRIPTION: Protein-protein interaction inhibition between Kras and SOS1 (KrasGl2D-SOS PPI) using AlphaScreen
- Type: binding
- MEASUREMENT_CONTEXT: AlphaScreen; biotin-tagged human Kras loaded with GDP, His-tagged human SOS1; read-out: KRAS G12D-SOS PPI IC50
Starred links: 1 amine or outer side, 2 acyl side, 3 side chain; linkers in the order of their positions; H or OH if unused. Positions of bridges follow the written chain, without caps; N, C: chain ends. Non-standard residues stand in square brackets, D forms with d. Residues, ends and D or L forms follow the SMILES beside them. *: point of attachment. hPhe(3-Cl-4-CF3) = N[C@@H](CCc1ccc(C(F)(F)F)c(Cl)c1)C(=O)O; X41 = O=C([C@H](Cc1cccc(I)c1F)N[*:1])[*:2]; NMeGly(cPent) = CN[C@H](C(=O)O)C1CCCC1; Phe(3-I) = N[C@@H](Cc1cccc(I)c1)C(=O)O; Pro(4,4-F2) = O=C(O)[C@@H]1CC(F)(F)CN1; NMeAla(cPr) = CN[C@@H](CC1CC1)C(=O)O; NMeY = CN[C@@H](Cc1ccc(O)cc1)C(=O)O; NMeCha = CN[C@@H](CC1CCCCC1)C(=O)O; NMeCba = CN[C@@H](CC1CCC1)C(=O)O; NMeD = CN[C@@H](CC(=O)O)C(=O)O; NMeL = CN[C@@H](CC(C)C)C(=O)O; NMeV = CN[C@H](C(=O)O)C(C)C; d(β3hA) = C[C@@H](N)CC(=O)O; NMeAbu = CC[C@H](NC)C(=O)O; NMeA = CN[C@@H](C)C(=O)O; NMeAib = CNC(C)(C)C(=O)O; Nle = CCCC[C@H](N)C(=O)O; Piperidide = C1CCN(*)CC1; Pyrrolidide = C1CCN(*)C1; Ac5c = NC1(C(=O)O)CCCC1; Aze = O=C(O)[C@@H]1CCN1; Sar = CNCC(=O)O
MEASURED_PROPERTY: pIC50
In plain terms, pIC50 is the concentration in mol/L turned into minus its base-10 logarithm.

Some solved entries appear below for comparison.
>  <COMPOUND>
CC[C@H](C)[C@@H]1NC(=O)[C@H](CC(C)C)N(C)C(=O)C[C@@H](C)NC(=O)[C@H](C(C)C)N(C)C(=O)C2(CCCC2)NC(=O)[C@@H]2CCCN2C(=O)[C@H](CCc2ccc(C(F)(F)F)c(Cl)c2)NC(=O)CN(C)C(=O)[C@H](CC2CCCCC2)N(C)C(=O)[C@@H]2CCCN2C(=O)CN(C)C1=O [Compound 1050] (cyclo([Ac5c][NMeV][d(β3hA)][NMeL]I[Sar]P[NMeCha][Sar][hPhe(3-Cl-4-CF3)]P))

>  <ENDPOINT_RESULT>
7.31

$$$$
>  <COMPOUND>
CC[C@H](C)[C@@H]1NC(=O)[C@H](CC(C)C)N(C)C(=O)C[C@@H](C(=O)N2CCCC2)N(C)C(=O)[C@H](C2CCCC2)N(C)C(=O)C2(CCCC2)NC(=O)[C@@H]2CC(F)(F)CN2C(=O)[C@H](CCc2ccc(C(F)(F)F)c(Cl)c2)NC(=O)CN(C)C(=O)[C@H](CC2CCCCC2)N(C)C(=O)CN(C)C(=O)CN(C)C1=O [Compound 1270] ([NMeL]I[Sar][Sar][NMeCha][Sar][hPhe(3-Cl-4-CF3)][Pro(4,4-F2)][Ac5c][NMeGly(cPent)][NMeD]-Pyrrolidide; lactam N-11)

>  <ENDPOINT_RESULT>
9.21

$$$$
>  <COMPOUND>
CC[C@H](C)[C@@H]1NC(=O)[C@H](CC(C)C)N(C)C(=O)C[C@@H](C)NC(=O)[C@H](C(C)C)N(C)C(=O)C2(CCCC2)NC(=O)[C@@H]2CCCN2C(=O)[C@H](CCc2ccc(C(F)(F)F)c(Cl)c2)NC(=O)CN(C)C(=O)[C@H](CC2CCCCC2)N(C)C(=O)[C@@H]2CCN2C(=O)[C@H](CC2CC2)N(C)C1=O [Compound 1612] (cyclo([Ac5c][NMeV][d(β3hA)][NMeL]I[NMeAla(cPr)][Aze][NMeCha][Sar][hPhe(3-Cl-4-CF3)]P))

>  <ENDPOINT_RESULT>
6.41

$$$$

Ask | Requested field: pIC50. Item: CCCC[C@@H]1NC(=O)[C@H](Cc2cccc(I)c2F)NC(=O)CN(C)C(=O)[C@H](Cc2ccc(OC)cc2)N(C)C(=O)[C@@H]2CCN2C(=O)[C@H](C)N(C)C(=O)[C@H]([C@@H](C)CC)NC(=O)[C@H](CC)N(C)C(=O)C[C@@H](C(=O)N2CCCCC2)N(C)C(=O)[C@H](CC(C)C)NC(=O)C(C)(C)N(C)C1=O [Compound 1249] ([NMeAbu]I[NMeA][Aze][NMeY](Me)[Sar][X41][Nle][NMeAib]L[NMeD]-Piperidide; lactam N-11)
Reply | 7.48

Ask | Please do the same for CCCC[C@@H]1NC(=O)[C@H](Cc2cccc(I)c2)NC(=O)CN(C)C(=O)[C@H](CC2CCC2)N(C)C(=O)[C@@H]2CCN2C(=O)[C@H](C)N(C)C(=O)[C@H]([C@@H](C)CC)NC(=O)[C@H](CC(C)C)N(C)C(=O)C[C@@H](C(=O)N2CCCCC2)N(C)C(=O)[C@H](CC(C)C)NC(=O)C(C)(C)N(C)C1=O [Compound 1413] ([NMeL]I[NMeA][Aze][NMeCba][Sar][Phe(3-I)][Nle][NMeAib]L[NMeD]-Piperidide; lactam N-11) as well.
Reply | 6.72
